Target: T1, RBD derived from SARS-CoV-2 (Wuhan strain) (SARS-CoV-2 (Wuhan strain), UniProt P0DTC2 319-541)
T1 construct: domain: RBD
Test: RBD beads, antibody 1 µg/mL, then labelled ACE2, flow cytometry
observation.type: fluorescence of ACE2 protein
API note: the answer field is a bare number with no unit suffix.

Ab175 (antibody, V domains shown) VH: EVQLVESGGGLVQPGGSLRLSCAASGIIVSSNYMTWVRQAPGKGLEWVSVLYSGGSTFYADSVKGRFTISRDNSKNMLYLQMNSLRAEDTAVYYCARDLQELGVDCWGQGTLVTVSS VL: DIQLTQSPSFLSASVGDRVTITCRASQGISSYLAWYQQKPGKAPKLLIYAASTLQSGVPSRFSGSGSGTEFTLTISSLQPEDFATYYCQQLDSYPRFGGGTKVEIK :: 439

# next binder below
Request: For the binder Ab496 (antibody, V domains shown) VH: EVQLVQSGPEVKKPGTSVKVSCKASGFIFTNSAVQWVRQARGQRLEWIGWIVVGSGNPNYAQKFQERVTITRDRSTSTAYMELSSLTSEDTAVYYCAAFPYYYDNSGSGPWGQGTLVTVSS VL: DIQLTQSPSSLSASVGDRVTITCQASQDIRNNLNWYQQIPGKAPKLLIYDASNLETGVPSRFSGSASGTDFTFTISSLQPEDVATYYCQQYANLPPFTFGPGTKVDIK , report fluorescence of ACE2 protein.
Result: 129
